- study target: Aβ42 (Homo sapiens, UniProt P05067)
- Sequence (P05067 672-713): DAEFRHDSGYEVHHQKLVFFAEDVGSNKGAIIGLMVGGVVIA
- run description: Th-T (thioflavin-T) assay of Aβ42 aggregation
- Assay type: biochemical
- measurement conditions: column suffix _50; measurement M19
Th-T fluorescence, mean of three wells (Fig. 7a) of 2 or higher: Criterion met. Under 2: Criterion not met.

compound	assigned category
C=C1CC[C@@H]2[C@](C)(CC[C@H]3O[C@H](C=C(C)C)C[C@@]23C)[C@@H]1Cc1c(OC)oc(CO)c(C(=O)OC)c1=O	Criterion not met
C=C1CC[C@@H]2[C@](C)(CC[C@H]3O[C@H](C=C(C)C)C[C@@]23C)[C@@H]1Cc1c(OC)oc(CO)c(C)c1=O	Criterion met
C=C1CCC2C(C)(CCC=C(C)C)C(O)CCC2(C)C1Cc1c(OC)oc(C)c(C(=O)OC)c1=O (centres unmarked)	Criterion not met
C=C1CCC2C(C)(CCC=C(C)C)C(O)CCC2(C)C1Cc1c(OC)oc(CO)c(C)c1=O (centres unmarked)	Criterion not met
C=C1CCC2C(C)(CCC=C(C)C)C(O)CCC2(C)C1Cc1c(OC)oc(CO)c(C(=O)OC)c1=O (centres unmarked)	Criterion not met

----------
Recorded Th-T fluorescence of Aβ42 (sheet Fig. 7a), mean of three wells values for a group of compounds are listed next.
- study target: Aβ42 (Homo sapiens, UniProt P05067)
- run description: Th-T (thioflavin-T) assay of Aβ42 aggregation
- Format: biochemical
- measurement conditions: head suffix _50 (concentration 50); reading M74
measurement label: Th-T fluorescence of Aβ42 (sheet Fig. 7a), mean of three wells

compound	assay value
C=C1CC[C@@H]2[C@](C)(CC[C@H]3O[C@H](C=C(C)C)C[C@@]23C)[C@@H]1Cc1c(OC)oc(CO)c(C)c1=O	2.11
C=C1CCC2C(C)(CCC=C(C)C)C(O)CCC2(C)C1Cc1c(OC)oc(C)c(C(=O)OC)c1=O (centres unmarked)	2.743
C=C1CCC2C(C)(CCC=C(C)C)C(O)CCC2(C)C1Cc1c(OC)oc(CO)c(C(=O)OC)c1=O (centres unmarked)	0.4696
C=C1CCC2C(C)(CCC=C(C)C)C(O)CCC2(C)C1Cc1c(OC)oc(CO)c(C)c1=O (centres unmarked)	1.457
C=C1CC[C@@H]2[C@](C)(CC[C@H]3O[C@H](C=C(C)C)C[C@@]23C)[C@@H]1Cc1c(OC)oc(CO)c(C(=O)OC)c1=O	0.2806

----------
- System: DL1 cells
- run description: cytotoxicity in Drosophila DL1 cells
- Type: cell-based
- measurement conditions: DL1 cells, 1 µM, replicate 2, relative to DMSO 1%
- Description: We screened the DDPs on the Drosophila assay system for cytotoxicity, inhibitory activity of innate immune signalling and insecticidal activity. The cytotoxicity of the DDPs was evaluated using two cell lines, embryonic macrophage-derived DL1 cells[58]–[60] and larval blood cell-derived l(2)mbn cells, and their IC50 values are listed in Supplementary Table 23.
measurement label: % viability, viability 2 (%)

compound	measurement label	assay value
C=C1CCC2C(C)(CCC=C(C)C)C(O)CCC2(C)C1Cc1c(O)c(C)c(C)oc1=O (stereo not shown) [Compound 4]	% viability, viability 2	197.168
C=C1CCC2C(C)(CCC=C(C)C)C(O)CCC2(C)C1Cc1c(OC)oc(C)c(C)c1=O (stereo not shown) [Compound 11]	% viability, viability 2	35.2139
C=C1CCC2C(C)(CCC=C(C)C)C(O)CCC2(C)C1Cc1c(O)c(C)c(C)oc1=O (stereo not shown) [Compound 9, higginsianin B]	% viability, viability 2	33.7678
C=C1CCC2C(C)(CCC=C(C)C)C(O)CCC2(C)C1Cc1c(OC)oc(C)c(C)c1=O (stereo not shown) [Compound 15, viridoxin A hydrolysate]	% viability, viability 2	230.228
